target: full-length human Cal1 (Homo sapiens (Human)); experiment: Calpain inhibition FRET assay; format: biochemical; settings: Table 3, 20 min incubation, FRET substrate
Sequence (P07384 whole entry): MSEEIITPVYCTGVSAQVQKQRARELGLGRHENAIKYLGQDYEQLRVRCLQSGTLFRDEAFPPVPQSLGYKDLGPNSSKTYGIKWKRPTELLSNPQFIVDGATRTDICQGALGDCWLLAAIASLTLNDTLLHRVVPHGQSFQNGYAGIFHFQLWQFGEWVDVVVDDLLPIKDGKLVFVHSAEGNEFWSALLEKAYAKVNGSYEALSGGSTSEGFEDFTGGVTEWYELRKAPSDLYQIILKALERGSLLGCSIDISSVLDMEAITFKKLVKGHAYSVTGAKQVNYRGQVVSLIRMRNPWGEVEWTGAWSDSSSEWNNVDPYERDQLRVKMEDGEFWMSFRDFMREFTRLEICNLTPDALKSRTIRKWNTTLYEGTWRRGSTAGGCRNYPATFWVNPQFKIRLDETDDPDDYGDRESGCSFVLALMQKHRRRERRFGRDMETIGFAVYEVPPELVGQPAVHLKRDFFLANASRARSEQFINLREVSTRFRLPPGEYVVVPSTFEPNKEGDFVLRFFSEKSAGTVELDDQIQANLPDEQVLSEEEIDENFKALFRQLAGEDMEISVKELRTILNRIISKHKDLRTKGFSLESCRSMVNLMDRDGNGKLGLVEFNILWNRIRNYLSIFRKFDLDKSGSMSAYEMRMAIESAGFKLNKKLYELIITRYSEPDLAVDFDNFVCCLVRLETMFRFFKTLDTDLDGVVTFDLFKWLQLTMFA
Sequence (P04632 whole entry partner): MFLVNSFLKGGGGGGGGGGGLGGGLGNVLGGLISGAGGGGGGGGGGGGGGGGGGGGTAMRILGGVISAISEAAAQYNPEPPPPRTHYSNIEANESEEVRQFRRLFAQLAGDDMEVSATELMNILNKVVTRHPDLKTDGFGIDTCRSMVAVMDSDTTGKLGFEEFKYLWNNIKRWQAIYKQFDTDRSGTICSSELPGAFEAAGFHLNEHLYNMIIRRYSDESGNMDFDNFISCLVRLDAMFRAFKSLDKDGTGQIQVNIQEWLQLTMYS
Measured metric: pIC50
# pIC50 = -log10(concentration in molar units)

>>> endpoint_result("CC(C)C[C@H](NC(=O)[C@H]1O[C@@H]1C(=O)O)C(=O)NCCCCNC(=O)CCCC[C@@H]1SC[C@@H]2NC(=O)N[C@@H]21")
7.00
>>> endpoint_result("O=C(NCc1cn(-c2ccc(F)cc2)nn1)[C@H](Cc1cscn1)NC(=O)[C@H]1O[C@@H]1C(=O)O")
7.00
>>> endpoint_result("Cn1cnc(C[C@H](NC(=O)[C@H]2O[C@@H]2C(=O)O)C(=O)Nc2nc(-c3ccc(F)cc3)cs2)c1")
6.65
>>> endpoint_result("CC(C)C[C@H](NC(=O)[C@H]1O[C@@H]1C(=O)O)C(=O)NCCCCNC(=O)CCCCC1CCSS1 (stereo partly shown)")
7.00
>>> endpoint_result("O=C(O)C1OC1C(=O)N[C@@H](Cc1cscn1)C(=O)Nc1nc(-c2ccc(F)cc2)cs1 (stereo in doubt)")
7.00
>>> endpoint_result("CC(C)C[C@H](NC(=O)C1O[C@@H]1C(=O)O)C(=O)NCCCCNC(=N)N (stereo partly shown) [Compound E64, reference compound]")
7.00

Entry CC(C)C[C@H](NC(=O)[C@H]1O[C@@H]1C(=O)O)C(=O)NCCCCNS(=O)(=O)c1ccc(F)cc1 , pIC50 reported as 6.82
